This collection of values is drawn from BigSolDB 2.1.

# condition: in n-propanol, 342.75 K
measure_name: solubility (mole fraction)

{"mol": "COc1cc(NS(=O)(=O)c2ccc(N)cc2)ncn1", "measure_name": "solubility (mole fraction)", "numeric_result": 0.00198}

----------
# condition: in methanol, 325.85 K
measure_name: solubility (mole fraction)

{"mol": "COc1cc(NS(=O)(=O)c2ccc(N)cc2)ncn1", "result": 0.00221}

----------
# condition: in ethyl acetate, 324 K

{"mol": "COc1cc(NS(=O)(=O)c2ccc(N)cc2)ncn1", "solubility (mole fraction)": 0.00169}

----------
# condition: in ethyl acetate, 339.8 K

{"mol": "COc1cc(NS(=O)(=O)c2ccc(N)cc2)ncn1", "solubility (mole fraction)": 0.00205}

----------
# condition: in n-butanol, 305.2 K

{"mol": "COc1cc(NS(=O)(=O)c2ccc(N)cc2)ncn1", "solubility (mole fraction)": 0.000117}

----------
# condition: in acetone, 299.05 K

{"mol": "COc1cc(NS(=O)(=O)c2ccc(N)cc2)ncn1", "solubility (mole fraction)": 0.00789}

----------
# condition: in methanol, 303.15 K
measure_name: solubility (mole fraction)

{"mol": "COc1cc(NS(=O)(=O)c2ccc(N)cc2)ncn1", "numeric_result": 0.000951}

----------
# condition: in ethyl acetate, 300.65 K
measure_name: solubility (mole fraction)

{"mol": "COc1cc(NS(=O)(=O)c2ccc(N)cc2)ncn1", "measure_name": "solubility (mole fraction)", "result": 0.00114}

----------
# condition: in methanol, 294.55 K

{"mol": "COc1cc(NS(=O)(=O)c2ccc(N)cc2)ncn1", "solubility (mole fraction)": 0.000735}

----------
# condition: in n-butanol, 318.05 K

{"mol": "COc1cc(NS(=O)(=O)c2ccc(N)cc2)ncn1", "solubility (mole fraction)": 0.000288}

----------
# condition: in n-butanol, 327.85 K
measure_name: solubility (mole fraction)

{"mol": "COc1cc(NS(=O)(=O)c2ccc(N)cc2)ncn1", "numeric_result": 0.000607}

----------
# condition: in acetone, 318.05 K
measure_name: solubility (mole fraction)

{"mol": "COc1cc(NS(=O)(=O)c2ccc(N)cc2)ncn1", "numeric_result": 0.0112}

----------
# condition: in ethyl acetate, 308.2 K
measure_name: solubility (mole fraction)

{"mol": "COc1cc(NS(=O)(=O)c2ccc(N)cc2)ncn1", "result": 0.00131}

----------
# condition: in n-propanol, 300.25 K

{"mol": "COc1cc(NS(=O)(=O)c2ccc(N)cc2)ncn1", "solubility (mole fraction)": 0.000233}

----------
# condition: in ethyl acetate, 331.95 K
measure_name: solubility (mole fraction)

{"mol": "COc1cc(NS(=O)(=O)c2ccc(N)cc2)ncn1", "numeric_result": 0.00184}

----------
# condition: in n-propanol, 318.05 K

{"mol": "COc1cc(NS(=O)(=O)c2ccc(N)cc2)ncn1", "solubility (mole fraction)": 0.000598}

----------
# condition: in ethanol, 347.15 K

{"mol": "COc1cc(NS(=O)(=O)c2ccc(N)cc2)ncn1", "solubility (mole fraction)": 0.00356}

----------
# condition: in ethanol, 337.85 K
measure_name: solubility (mole fraction)

{"mol": "COc1cc(NS(=O)(=O)c2ccc(N)cc2)ncn1", "measure_name": "solubility (mole fraction)", "numeric_result": 0.00243}
